Kindly supply the reported IC50 values for the records listed here.
TARGET_ENTITY: UniProt:P00338
ASSAY_NOTES: Inhibition of recombinant human LDHA using sodium pyruvate as substrate preincubated for 5 mins followed by diaphorase/resazurin addition and measured after 20 mins by fluorescence based assay
Write the number in nM without appending the unit.

Form field - read-out: IC50; system: UniProt:P00338; submitted item: NS(=O)(=O)c1ccc(Cc2c(-c3ccc(F)c(OCc4ccc(C(F)(F)F)o4)c3)nn(-c3nc(C(=O)O)cs3)c2CC2CC2)cc1F 23

Form field - read-out: IC50; system: UniProt:P00338; submitted item: NS(=O)(=O)c1ccc(Cc2c(-c3cccc(N4CCC(F)(F)C4)c3)nn(-c3nc(C(=O)O)cs3)c2CC2CC2)cc1F 15

Form field - read-out: IC50; system: UniProt:P00338; submitted item: NS(=O)(=O)c1ccc(Cc2c(-c3ccc(F)c(C(=O)N4CCCC4)c3)nn(-c3nc(C(=O)O)cs3)c2CC2CC2)cc1F 154

Form field - read-out: IC50; system: UniProt:P00338; submitted item: NS(=O)(=O)c1ccc(Cc2c(-c3cccc(N4CCC(F)(F)CC4)c3)nn(-c3nc(C(=O)O)cs3)c2CC2CC2)cc1F 17

Form field - read-out: IC50; system: UniProt:P00338; submitted item: NS(=O)(=O)c1ccc(Cc2c(-c3ccc(F)c(OCc4cccc(F)c4)c3)nn(-c3nc(C(=O)O)cs3)c2CC2CC2)cc1F 22

Form field - read-out: IC50; system: UniProt:P00338; submitted item: NS(=O)(=O)c1ccc(Cc2c(-c3cccc(Oc4cccc(F)c4)c3)nn(-c3nc(C(=O)O)cs3)c2CC2CC2)cc1 1060

Form field - read-out: IC50; system: UniProt:P00338; submitted item: NS(=O)(=O)c1ccc(Cc2c(-c3ccc(F)c(OCC4CC4(F)F)c3)nn(-c3nc(C(=O)O)cs3)c2CC2CC2)cc1F (configuration not stated) 5

* * *

ASSAY_NOTES: Permeability of compound by PAMPA
Format: ADME
COND: read-out: permeability
OUTCOME_MEASURE: Papp (×10⁻⁶ cm/s)
Write the number in ×10⁻⁶ cm/s without appending the unit.

Sample NS(=O)(=O)c1ccc(Cc2c(-c3cccc(Nc4ccccc4)c3)nn(-c3nc(C(=O)O)cs3)c2CC2CC2)cc1 — what was its Papp? 4.4

Sample NS(=O)(=O)c1ccc(Cc2c(-c3ccc(F)c(OCc4cccc(F)c4)c3)nn(-c3nc(C(=O)O)cs3)c2CC2CC2)cc1F — what was its Papp? 2.9

Sample NS(=O)(=O)c1ccc(Cc2c(-c3ccc(F)c(C(=O)NCc4ccccc4)c3)nn(-c3nc(C(=O)O)cs3)c2CC2CC2)cc1F — what was its Papp? 8.7

Sample NS(=O)(=O)c1ccc(Cc2c(-c3ccc(F)c(OCc4ccc(C(F)(F)F)o4)c3)nn(-c3nc(C(=O)O)cs3)c2CC2CC2)cc1F — what was its Papp? 12

Sample Cc1ccc(Oc2cc(-c3nn(-c4nc(C(=O)O)cs4)c(CC4CC4)c3Cc3ccc(S(N)(=O)=O)c(F)c3)ccc2F)cc1 — what was its Papp? 13

Sample NS(=O)(=O)c1ccc(Cc2c(-c3ccc(F)c(NC(=O)c4ccccc4)c3)nn(-c3nc(C(=O)O)cs3)c2CC2CC2)cc1F — what was its Papp? 6.4

Sample NS(=O)(=O)c1ccc(Cc2c(-c3ccc(F)c(OCC4CC4(F)F)c3)nn(-c3nc(C(=O)O)cs3)c2CC2CC2)cc1F (stereo not drawn) — what was its Papp? 4.9

Sample NS(=O)(=O)c1ccc(Cc2c(-c3ccc(F)c(C(=O)N4CCCC4)c3)nn(-c3nc(C(=O)O)cs3)c2CC2CC2)cc1F — what was its Papp? 5.7

* * *

Kindly supply the reported solubility kinetic values for the records listed here.
ASSAY_NOTES: Kinetic solubility of compound
Assay type: physicochemical
COND: read-out: Kinetic_solubility

Sample NS(=O)(=O)c1ccc(Cc2c(-c3ccc(F)c(OC4CC4)c3)nn(-c3nc(C(=O)O)cs3)c2CC2CC2)cc1F — what was its solubility kinetic? > 87 µg/mL

Sample NS(=O)(=O)c1ccc(Cc2c(-c3ccc(F)c(NC(=O)c4ccccc4)c3)nn(-c3nc(C(=O)O)cs3)c2CC2CC2)cc1F — what was its solubility kinetic? > 98 µg/mL

Sample NS(=O)(=O)c1ccc(Cc2c(-c3cccc(N4CCOCC4)c3)nn(-c3nc(C(=O)O)cs3)c2CC2CC2)cc1F — what was its solubility kinetic? > 88 µg/mL

Sample NS(=O)(=O)c1ccc(Cc2c(-c3ccc(F)c(C(=O)N4CCCC4)c3)nn(-c3nc(C(=O)O)cs3)c2CC2CC2)cc1F — what was its solubility kinetic? > 93 µg/mL

* * *

TARGET_ENTITY: L-lactate dehydrogenase A chain (Homo sapiens, UniProt P00338)
ASSAY_NOTES: Inhibition of LDHA in human MIA PaCa2 cells assessed as reduction in lactate production incubated for 2 hrs by fluorescence based assay
Format: cell-based, MIA PaCa-2
OUTCOME_MEASURE: pIC50
Give only the number. pIC50 is defined as minus log10 of concentration in molar units.

Sample NS(=O)(=O)c1ccc(Cc2c(-c3ccc(F)c(OCc4cccc(F)c4)c3)nn(-c3nc(C(=O)O)cs3)c2CC2CC2)cc1F — what was its pIC50? 6.17

Sample NS(=O)(=O)c1ccc(Cc2c(-c3ccc(F)c(Oc4cccc(F)c4)c3)nn(-c3nc(C(=O)O)cs3)c2CC2CC2)cc1F — what was its pIC50? 6.01

Sample NS(=O)(=O)c1ccc(Cc2cn(-c3nc(C(=O)O)cs3)nc2-c2cccc(OCC3CCCC3)c2)cc1 — what was its pIC50? 5.11

Sample NS(=O)(=O)c1ccc(Cc2c(-c3ccc(F)c(Oc4ccc(C(F)(F)F)cc4)c3)nn(-c3nc(C(=O)O)cs3)c2CC2CC2)cc1F — what was its pIC50? 5.96

Sample NS(=O)(=O)c1ccc(Cc2c(-c3cccc(Nc4ccccc4)c3)nn(-c3nc(C(=O)O)cs3)c2CC2CC2)cc1 — what was its pIC50? 5.17

Sample NS(=O)(=O)c1ccc(Cc2c(-c3cccc(N4CCC(F)(F)C4)c3)nn(-c3nc(C(=O)O)cs3)c2CC2CC2)cc1F — what was its pIC50? 5.38

Sample NS(=O)(=O)c1ccc(Cc2c(-c3ccc(F)c(NC(=O)c4ccccc4)c3)nn(-c3nc(C(=O)O)cs3)c2CC2CC2)cc1F — what was its pIC50? 5.30

* * *

TARGET_ENTITY: L-lactate dehydrogenase A chain (Homo sapiens, UniProt P00338)
ASSAY_NOTES: Inhibition of LDHA in human MIA PaCa2 cells assessed as reduction in lactate production incubated for 2 hrs by fluorescence based assay
Assay type: cell-based, MIA PaCa-2
OUTCOME_MEASURE: pIC50
Give only the number. pIC50 is defined as minus log10 of concentration in molar units.

Sample NS(=O)(=O)c1ccc(Cc2c(-c3ccc(F)c(N4CCCC4=O)c3)nn(-c3nc(C(=O)O)cs3)c2CC2CC2)cc1F — what was its pIC50? 5.22

Sample CC(C)(C)NC(=O)c1cc(-c2nn(-c3nc(C(=O)O)cs3)c(CC3CC3)c2Cc2ccc(S(N)(=O)=O)c(F)c2)ccc1F — what was its pIC50? 4.93

Sample COc1cc(-c2nn(-c3nc(C(=O)O)cs3)c(CC3CC3)c2Cc2ccc(S(N)(=O)=O)cc2)ccc1F — what was its pIC50? 5.24

Sample NS(=O)(=O)c1ccc(Cc2c(-c3ccc(F)c(OCC4CCCO4)c3)nn(-c3nc(C(=O)O)cs3)c2CC2CC2)cc1F (stereo unspecified) — what was its pIC50? 5.54

Sample NS(=O)(=O)c1ccc(Cc2c(-c3cccc(N4CCC(F)(F)CC4)c3)nn(-c3nc(C(=O)O)cs3)c2CC2CC2)cc1F — what was its pIC50? 5.06

Sample NS(=O)(=O)c1ccc(Cc2cn(-c3nc(C(=O)O)cs3)nc2-c2cccc(OCc3cccc(F)c3)c2)cc1 — what was its pIC50? 5.21

Sample NS(=O)(=O)c1ccc(Cc2c(-c3ccc(F)c(C(=O)N4CCCC4)c3)nn(-c3nc(C(=O)O)cs3)c2CC2CC2)cc1F — what was its pIC50? 4.70

Sample NS(=O)(=O)c1ccc(Cc2c(-c3cccc(N4CCC(C(F)(F)F)CC4)c3)nn(-c3nc(C(=O)O)cs3)c2CC2CC2)cc1F — what was its pIC50? 5.62

Sample NS(=O)(=O)c1ccc(Cc2c(-c3cccc(OCc4ccccc4)c3)nn(-c3nc(C(=O)O)cs3)c2CC2CC2)cc1F — what was its pIC50? 6.16

Sample NS(=O)(=O)c1ccc(Cc2c(-c3cccc(OC4CCCC4)c3)nn(-c3nc(C(=O)O)cs3)c2CC2CC2)cc1F — what was its pIC50? 6.15

Reference for the values: ChEMBL document CHEMBL4814030
